study target: Transporter, Norepinephrine (NET) (Homo sapiens, UniProt P23975)
Sequence (P23975 whole entry): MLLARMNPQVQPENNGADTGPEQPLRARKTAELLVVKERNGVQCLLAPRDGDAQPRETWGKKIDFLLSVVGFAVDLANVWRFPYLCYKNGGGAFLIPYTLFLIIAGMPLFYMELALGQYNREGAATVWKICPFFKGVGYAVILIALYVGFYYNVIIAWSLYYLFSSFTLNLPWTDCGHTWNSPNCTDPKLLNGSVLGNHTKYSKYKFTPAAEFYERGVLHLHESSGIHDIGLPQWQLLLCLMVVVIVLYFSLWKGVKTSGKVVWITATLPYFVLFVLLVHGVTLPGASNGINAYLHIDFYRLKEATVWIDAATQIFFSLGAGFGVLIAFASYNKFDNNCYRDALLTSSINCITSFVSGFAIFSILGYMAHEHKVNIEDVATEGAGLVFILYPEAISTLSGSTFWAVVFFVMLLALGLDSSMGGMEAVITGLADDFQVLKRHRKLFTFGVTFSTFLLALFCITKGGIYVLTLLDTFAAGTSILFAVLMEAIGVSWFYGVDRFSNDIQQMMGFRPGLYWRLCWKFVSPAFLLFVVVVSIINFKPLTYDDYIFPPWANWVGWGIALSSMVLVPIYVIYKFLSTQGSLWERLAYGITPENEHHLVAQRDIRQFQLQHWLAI
experiment: Radioligand binding assay, Norepinephrine transporter
condition description: read-out: K1
readout name: pKi
One number for each entry, as −log10 of the molar value.

Value lookup for pKi; key = CN[C@H]1CC[C@@H](c2ccc(Cl)c(Cl)c2)c2ccc(C#CCCCO)cc21 [compound Ia, hydroiodide] 6.21

---

study target: Serotonin (5-Hydroxytryptamine) 5-HT2A (Homo sapiens, UniProt P28223)
Sequence (P28223 whole entry): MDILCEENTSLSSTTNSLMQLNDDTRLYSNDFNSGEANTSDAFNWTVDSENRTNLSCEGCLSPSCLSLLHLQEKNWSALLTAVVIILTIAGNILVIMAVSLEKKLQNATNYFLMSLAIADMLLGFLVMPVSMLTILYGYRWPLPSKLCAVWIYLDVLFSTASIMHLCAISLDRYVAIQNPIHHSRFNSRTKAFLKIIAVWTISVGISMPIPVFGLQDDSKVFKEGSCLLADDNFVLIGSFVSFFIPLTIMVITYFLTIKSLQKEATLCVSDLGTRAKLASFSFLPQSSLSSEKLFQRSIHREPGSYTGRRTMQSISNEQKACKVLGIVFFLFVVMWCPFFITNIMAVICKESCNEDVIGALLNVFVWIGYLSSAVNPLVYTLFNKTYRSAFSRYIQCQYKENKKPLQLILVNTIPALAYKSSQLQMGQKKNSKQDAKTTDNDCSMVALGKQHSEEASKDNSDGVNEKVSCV
experiment: Radioligand binding assay, 5-HT2A
readout name: pIC50
One number for each entry, as −log10 of the molar value.

I would be grateful if you could share the reported pIC50 for CN[C@H]1CC[C@@H](c2ccc(Cl)c(Cl)c2)c2ccc(C#CCCCO)cc21 [compound Ia, hydroiodide] . 5.47
